# experiment-description: plasmodial surface anion channel blockers, osmotic lysis – cell-based, P. falciparum Indochina, OD700, 18 h, primary screen (AID 1157)
# condition-notes: P. falciparum Indochina infected erythrocytes, osmotic lysis OD700, 18 h; higher = more signal, called active from +8 up or from −8 down
// Condition not met strictly below 0.08 in z-score; Condition met otherwise

| compound | assigned-class |
| --- | --- |
| C=CCC(OC(C)=O)[C@@H]1[C@@H](N(Cc2cccc3ccccc23)C(=O)Cc2ccc(OC)cc2)c2cc(OCCCO)ccc2N1C(=O)Cc1ccc2ccccc2c1 (stereo partly specified) | Condition not met |
| O=C(NCc1ccc(F)cc1)[C@H]1C[C@H]2C(=O)N3CCC[C@H]3C(=O)N2[C@H]1c1ccc(O)cc1 | Condition not met |
| C=C(COC)/C(=C/C[C@@H](OC(C)=O)c1ccccc1OCCO)c1cnc2ccccc2c1 | Condition met |
| O=C1C=C(c2ccccc2)C(=O)C2=C1CC([C@H]1Oc3ccccc3S(=O)(=O)N3CCC[C@@H]13)=CC2 | Condition met |
| COc1ccc([Si](C)(C)[C@@H]2[C@@H](CC(=O)N3CCC[C@H]3CO)O[C@]3(C(=O)N(Cc4cccc(N5CCCCC5=O)c4)c4ccccc43)[C@H]2C)cc1 | Condition met |
| C=CCC(OC(C)=O)[C@@H]1[C@@H](N(Cc2ccc(-c3cccc(C(F)(F)F)c3)o2)C(=O)c2ccc(-c3ccccc3)cc2)c2cc(OCCCO)ccc2N1C(=O)c1ccc2ccccc2c1 (stereo partly specified) | Condition met |

###

# target: Focal adhesion kinase 1 (Homo sapiens)
# experiment-description: PTK2 protein binding on printed compound slides – biochemical, small-molecule microarray, 635/667 nm fluorescence, BSA, DTT, primary screen (AID 1130);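 further: composite of spot emission at 667 nm and signal to noise over triplicate slides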
# condition-notes: 635 nm fluorescence, higher = more signal

| molecule | composite z-score |
| --- | --- |
| O=C1C2C=CC(C(O)c3cccs3)N(Nc3ccc([N+](=O)[O-])cc3)C2C(=O)N1c1ccccc1 (stereo not drawn) | 0.894 |
| COC(=O)[C@@]1(Cc2ccc(OC)cc2)[C@H]2c3cc(C(=O)N(C)C)[nH]c3C[C@H]2CN1C(=O)c1ccccc1 | 0.0999 |
| CC(C)N1C(=O)C[C@@](C(=O)NCCN2CCOCC2)(c2ccc([N+](=O)[O-])cc2)[C@H]1c1ccc(CO)cc1 | -0.455 |
| COc1ccc([Si](C)(C)[C@@H]2[C@@H](CC(=O)N3Cc4ccccc4C[C@H]3CO)O[C@]3(C(=O)N(Cc4ccc(N5CCOC5=O)cc4)c4ccccc43)[C@H]2C)cc1 | 0.239 |
| CC1=C([C@H](O)CCc2ccccc2)[C@H](CO)n2c(=O)n(-c3ccccc3)c(=O)n2C1 | -0.168 |
| C=CCOC(=O)[C@@H]1[C@H]2C(=O)O[C@H](c3ccccc3)[C@H](c3ccccc3)N2[C@H](c2ccc(OCCOC(=O)[C@H]3C[C@H]4C(=O)NCC(=O)N4[C@H]3c3cccc(OCCO)c3)cc2)[C@@]12C(=O)Nc1ccc(I)cc12 | 0.919 |
| NC(=O)NCC#Cc1ccc2c(c1)[C@]1(C(=O)N2)[C@H](c2ccc(OCCO)cc2)N2[C@H](c3ccccc3)[C@H](c3ccccc3)OC(=O)[C@H]2[C@@H]1C(=O)O | -0.333 |
| COc1ccc([Si](C)(C)[C@H]2[C@H](CC(=O)N3CCC[C@H]3CO)O[C@@]3(C(=O)N(Cc4ccc(N5CCCCC5=O)cc4)c4ccccc43)[C@@H]2C)cc1 | 0.516 |
| COc1ccc([Si](C)(C)[C@H]2[C@H](CCO)O[C@@]3(C(=O)N(Cc4cccc(N5C(=O)c6ccccc6Oc6ccccc65)c4)c4ccccc43)[C@@H]2C)cc1 | -0.065 |
| O=C(NCc1ccc(F)cc1)[C@H]1C[C@H]2C(=O)N3CCC[C@H]3C(=O)N2[C@H]1c1ccc(O)cc1 | -0.753 |
| O=C1O[C@H](c2ccccc2)[C@H](c2ccccc2)N2[C@H]1[C@@H](C(=O)N1CCN(c3ncccn3)CC1)[C@]1(C(=O)Nc3ccc(C#CCCO)cc31)[C@H]2c1ccc(O)cc1 | 1.38 |
| C=C(CCCC)C(=O)CC[C@@H](OC(=O)c1ccccc1-c1ccccc1C(=O)O)c1ccccc1OCCO | -0.104 |
| CC(=O)NCCCC[C@@H]1NC(=O)[C@H]2C[C@@H](C(=O)NCCCCCCNC(=O)CS)[C@@H](c3cccc(OCCO)c3)N2C1=O | 0.612 |

###

z-score overview
# experiment-description: blockers of DNA damage checkpoint Chk1 activation – imaging, HeLa, hydroxyurea, phospho-Chk1 nuclear intensity, primary screen (AID 1187); further: test concentration not given here
# condition-notes: hydroxyurea-induced phospho-Chk1 immunofluorescence imaging, higher = more signal

| cpd-smiles | z-score |
| --- | --- |
| C=CCOC(=O)[C@@H]1[C@H]2C(=O)O[C@H](c3ccccc3)[C@H](c3ccccc3)N2[C@H](c2ccc(OCCOC(=O)[C@H]3C[C@H]4C(=O)N[C@@H](CCCCN(C)C)C(=O)N4[C@H]3c3ccc(O)cc3)cc2)[C@@]12C(=O)Nc1ccc(I)cc12 | 0.419 |
| CCOC(=O)C1=CC[C@@H](c2ccc(OC)cc2)N(S(=O)(=O)c2ccc(C)cc2)[C@H]1c1ccc(C)cc1 | -0.5 |
| CCCCCCc1nc(-c2ccc(-c3ccc(Cl)c(Cl)c3)o2)cc2c1[Si](C(C)C)(C(C)C)OC2 | -0.222 |
| COCCOC(=O)N1C(=O)[C@@]2(c3cc(C#CCCO)ccc31)[C@H](c1ccccc1OCCO)N1[C@H](c3ccccc3)[C@H](c3ccccc3)OC(=O)[C@H]1[C@@H]2C(N)=O | -0.0408 |
| COc1ccc(C(=O)Nc2cccc(CN3C(=O)[C@@]4(O[C@@H](CC(=O)N5CCC[C@H]5CO)[C@H]([Si](C)(C)c5ccc(OC)cc5)[C@H]4C)c4ccccc43)c2)cc1 | 0.071 |
| Cc1ccc(S[C@]2(C(=O)NCCCN(C)C)CC(=O)N(Cc3ccccc3C(F)(F)F)[C@@H]2c2ccc(CO)cc2I)cc1 | 0.675 |

###

# experiment-description: viability profiling in RPMI8226 myeloma cells – cell-based, resazurin fluorescence, basal, 24 h, PK04 Diversity Set, profiling panel (AID 1180);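 further: RPMI8826 multiple myeloma cell line at 5000 cells per well; test concentration not given here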
# condition-notes: higher = more signal
metric-name: z-score

| compound | metric-name | reported |
| --- | --- | --- |
| O=C1C[C@@](C(=O)O)(c2ccc([N+](=O)[O-])cc2)[C@@H](c2ccc(CO)cc2)N1C1CCCCC1 | z-score | 0.0311 |
| O=C1O[C@@H](c2ccccc2)[C@@H](c2ccccc2)N2[C@@H](c3ccc(OCCO)cc3)[C@]3(C(=O)Nc4ccc(C#CC5(O)CCCCCC5)cc43)[C@@H](C(=O)O)[C@H]12 | z-score | -0.121 |
| C=CCN1Cc2ccccc2[C@H]2OC(c3ccc(OCCCO)cc3)=N[C@@]2(CCS(=O)(=O)c2ccccc2)C1=O | z-score | -0.0829 |
| CCOC(=O)C[C@H]1[C@H](OC(=O)c2ccccc2-c2ccccc2)[C@@H](NC(=O)C2CCCCC2)c2cc(OCCCO)ccc2N1C(=O)c1ccc2ccccc2n1 | z-score | 0.131 |
| COc1ccc([Si](C)(C)[C@H]2[C@H](CC(=O)N3Cc4ccccc4C[C@H]3CO)O[C@@]3(C(=O)N(C)c4ccccc43)[C@@H]2C)cc1 | z-score | -2.06 |
| O=C(N1CCOCC1)[C@@]1(Cc2ccccc2)COC(c2ccc(OCCCO)cc2)=N1 | z-score | 1.15 |
| CC(C)(C)OC(=O)CC[C@]1(C(=O)NCC(O)CO)N=C(c2ccc(OCCCO)cc2)O[C@H]1c1ccccc1N=[N+]=[N-] (stereo not given in full) | z-score | -0.288 |
| C=C(CCCC)C(=O)CC[C@H](OC(=O)c1ccccc1-c1ccccc1C(=O)O)c1ccc(OCCO)cc1 | z-score | 0.147 |
| COCCOC(=O)N1C(=O)[C@@]2(c3cc(C#CCC(C(=O)OC)C(=O)OC)ccc31)[C@H](C(N)=O)[C@H]1C(=O)O[C@H](c3ccccc3)[C@H](c3ccccc3)N1[C@@H]2c1ccc(O)cc1 | z-score | -4.48 |
| COC(=O)[C@@]1(Cc2ccccc2)[C@H]2c3cc(C(=O)N(C)C)n(CCO)c3C[C@H]2CN1C(=O)c1ccccc1 | z-score | -1.11 |
| NCCCCCCNC(=O)[C@@H]1C[C@@H]2C(=O)N3CCC[C@H]3C(=O)N2[C@@H]1c1cccc(OCCO)c1 | z-score | -0.0931 |
| CN(C)CCCCNC(=O)[C@H]1C[C@H]2C(=O)NCC(=O)N2[C@H]1c1ccc(O)cc1 | z-score | 0.511 |
| [N-]=[N+]=Nc1ccccc1C[C@@]1(C(=O)NCC(O)CO)N=C(c2ccc(OCCCO)cc2)O[C@@H]1c1ccccc1 (stereo not given in full) | z-score | 0.0762 |
| C#CCN1[C@@H](Cc2ccccc2)C(=O)O[C@H](Cc2ccccc2)[C@@H]1/C=C/C1CC1 | z-score | 1.62 |
| COc1ccccc1CN1C(=O)c2ccccc2[C@](Cc2ccccc2I)(C(=O)NCC(C)C)[C@@H]1c1ccc(CO)cc1 | z-score | 1.11 |
